# protocol-notes: Pharmacokinetic test in rats: plasma and brain concentration after gavage 3 mg/kg
# Format: in vivo
# condition-parameters: rat, plasma, oral, SD rats, sampling time 4 h, read-out: Plasma conc.
# Text: Test Example 4: Pharmacokinetic Test of Compounds of the Present Invention in Rats To study in vivo pharmacokinetic behaviors of the compounds of the present invention in rats, and evaluate pharmacokinetic characteristics thereof. […] The concentrations of corresponding compounds in plasma and cerebrospinal fluid were detected by LC-MS/MS.
quantity: concentration at 4 h (ng/mL)
Answers are plain numbers, in ng/mL.

Qu. What does the data say about its concentration at 4 h? Entry: Cc1nsc(-c2nnc3n2CCN(C(=O)c2ccc(F)cc2)[C@@H]3C)n1 [Fezolinetant, reference compound]
Ans. 961

====

# protocol-notes: Pharmacokinetic test in rats: plasma and brain concentration after gavage 3 mg/kg
# Type: in vivo
# condition-parameters: rat, brain, oral, SD rats, sampling time 4 h, read-out: Brain conc.
quantity: concentration at 4 h

Qu. What does the data say about its concentration at 4 h? Entry: Cc1nsc(-c2nnc3n2CCN(C(=O)c2ccc(F)cc2)[C@@H]3C)n1 [Fezolinetant, reference compound]
Ans. 419 ng/mL

====

# Test system: MDR1
# protocol-notes: In vitro brain model test: MDR1-MDCKII bidirectional permeability
# Type: in vitro ADME
# condition-parameters: dog, MDCK-MDR1, pH 7.4, B to A / A to B, read-out: Efflux rate
quantity: efflux ratio at 2.5 h, 2 μM

Here are 4 molecules together with their reported answers.
Qu. What does the data say about its efflux ratio at 2.5 h, 2 μM? Entry: Cc1nsc(-c2nc(N3Cc4ccccc4C3=O)c3n2CCN(C(=O)c2ccc(F)cc2)[C@@H]3C)n1 [Compound 085]
Ans. 0.67

Qu. Please do the same for Cc1nsc(-c2nc(-c3cc(F)ncc3O)c3n2CCN(C(=O)c2ccc(F)cc2)[C@@H]3C)n1 [Compound 165] as well.
Ans. 0.64

Qu. Please do the same for Cc1nsc(-c2nc(-c3cc(F)ncc3F)c3n2CCN(C(=O)c2ccc(F)cc2)[C@@H]3C)n1 [Compound 077] as well.
Ans. 0.77

Qu. Please do the same for Cc1nsc(-c2nc(-c3ccnc(F)c3F)c3n2CCN(C(=O)c2ccc(F)cc2)[C@@H]3C)n1 [Compound 074] as well.
Ans. 0.7

Further cases:
Qu. What does the data say about its efflux ratio at 2.5 h, 2 μM? Entry: Cc1nsc(-c2nc(-c3ccnc(F)c3)c3n2CCN(C(=O)c2ccc(F)cc2)[C@@H]3C)n1 [Compound 044]
Ans. 0.66

====

# protocol-notes: Pharmacokinetic test in rats: plasma and brain concentration after gavage 3 mg/kg
# Assay type: in vivo
# condition-parameters: rat, brain, oral, SD rats, sampling time 0.5 h, read-out: Brain conc.
quantity: concentration at 0.5 h (µg/mL)
Give bare numbers, in µg/mL.

Qu. What does the data say about its concentration at 0.5 h? Entry: Cc1nsc(-c2nc(-c3cc(F)ncc3F)c3n2CCN(C(=O)c2ccc(F)cc2)[C@@H]3C)n1
Ans. 2.57

====

# protocol-notes: Pharmacokinetic test in rats: plasma and brain concentration after gavage 3 mg/kg
# Assay type: in vivo
# condition-parameters: rat, brain/plasma, oral, SD rats, sampling time 1 h, read-out: B/P ratio
quantity: Kp at 1 h
Answers are plain numbers.

Qu. What does the data say about its Kp at 1 h? Entry: Cc1nsc(-c2nnc3n2CCN(C(=O)c2ccc(F)cc2)[C@@H]3C)n1 [Fezolinetant, reference compound]
Ans. 0.38

====

# test-target: human NK-3 receptor (Homo sapiens, UniProt P29371)
# Sequence (P29371 whole entry): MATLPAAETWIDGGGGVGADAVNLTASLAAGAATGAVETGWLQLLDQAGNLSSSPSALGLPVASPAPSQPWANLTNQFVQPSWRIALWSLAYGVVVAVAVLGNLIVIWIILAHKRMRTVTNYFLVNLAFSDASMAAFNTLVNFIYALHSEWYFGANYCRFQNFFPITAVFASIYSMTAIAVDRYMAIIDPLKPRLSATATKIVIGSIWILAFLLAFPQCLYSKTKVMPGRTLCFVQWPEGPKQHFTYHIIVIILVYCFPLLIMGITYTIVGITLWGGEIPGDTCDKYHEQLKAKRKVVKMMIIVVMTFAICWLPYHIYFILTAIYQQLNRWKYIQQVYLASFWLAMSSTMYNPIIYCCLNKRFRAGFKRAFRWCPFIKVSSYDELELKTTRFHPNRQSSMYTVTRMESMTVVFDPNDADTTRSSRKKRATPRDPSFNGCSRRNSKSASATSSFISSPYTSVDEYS
# protocol-notes: Antagonistic activity on human NK-3 receptor in human NK-3R/HEK293 stably transfected cells (Fluo-4, FLIPR, Neurokinin B as agonist)
# condition-parameters: human NK-3R/HEK293 cells
Could you please report measured pIC50 for the items listed next?
Give bare numbers, as −log10 of the molar value.

For each entry beneath this line, provide reported pIC50.
1. Cc1nsc(-c2nc(N3C[C@H](N)CC3=O)c3n2CCN(C(=O)c2ccc(F)cc2)[C@@H]3C)n1
2. Cc1nsc(-c2nc(N3C[C@H](F)CC3=O)c3n2CCN(C(=O)c2ccc(F)cc2)[C@@H]3C)n1
3. Cc1nsc(-c2nc(N3COCC3=O)c3n2CCN(C(=O)c2ccc(F)cc2)C3C)n1 (centres unmarked)
4. Cc1nsc(-c2nc(-c3ccnc(F)c3)c3n2CCN(C(=O)c2ccc(F)cc2)[C@@H]3C)n1
5. CC(=O)N[C@@H]1CC(=O)N(c2nc(-c3nc(C)ns3)n3c2[C@@H](C)N(C(=O)c2ccc(F)cc2)CC3)C1
6. Cc1cc(-c2nc(-c3nc(C)ns3)n3c2[C@@H](C)N(C(=O)c2ccc(F)cc2)CC3)ccn1
7. Cc1nsc(-c2nc(N3CCOCC3=O)c3n2CCN(C(=O)c2ccc(F)cc2)[C@@H]3C)n1
8. C[C@@H]1c2c(N3CCCC3=O)nc(-c3nc(C(F)(F)F)cs3)n2CCN1C(=O)c1ccc(F)cc1

Ans.
[7.37, 7.81, 7.18, 7.77, 7.79, 7.53, 7.77, 7.29]

For each entry beneath this line, provide reported pIC50.
1. COCC(=O)Nc1nc(-c2nc(C)ns2)n2c1[C@@H](C)N(C(=O)c1ccc(F)cc1)CC2
2. Cc1nsc(-c2nc(-c3cc(F)nc(F)c3)c3n2CCN(C(=O)c2ccc(F)cc2)[C@@H]3C)n1

Ans.
[7.23, 7.70]

For each entry beneath this line, provide reported pIC50.
1. Cc1nsc(-c2nc(-c3ccncn3)c3n2CCN(C(=O)c2ccc(F)cc2)[C@@H]3C)n1
2. Cc1nsc(-c2nc(N3CCNCC3=O)c3n2CCN(C(=O)c2ccc(F)cc2)[C@@H]3C)n1
3. Cc1nsc(-c2nc(N3CCCC3=O)c3n2CCN(C(=O)c2cc(F)c(F)c(F)c2)[C@@H]3C)n1
4. Cc1nsc(-c2nc(N(C)S(C)(=O)=O)c3n2CCN(C(=O)c2ccc(F)cc2)[C@@H]3C)n1

Ans.
1. 7.53
2. 7.64
3. 7.55
4. 7.10

====

# System: MDR1
# protocol-notes: In vitro brain model test: MDR1-MDCKII bidirectional permeability
# Type: in vitro ADME
# condition-parameters: dog, MDCK-MDR1, pH 7.4, 2 μM, 2.5 h, pH7.4
Could you please report measured Papp A→B at 2.5 h, 2 μM for the items listed next?
Record the result as a number with its unit.

Here are 3 compounds together with their reported answers.
Qu. What does the data say about its Papp A→B at 2.5 h, 2 μM? Entry: Cc1nsc(-c2nc(-c3cc(F)ncc3O)c3n2CCN(C(=O)c2ccc(F)cc2)[C@@H]3C)n1 [Compound 165]
Ans. 19.2 ×10⁻⁶ cm/s

Qu. Please do the same for Cc1nsc(-c2nc(N3Cc4ccccc4C3=O)c3n2CCN(C(=O)c2ccc(F)cc2)[C@@H]3C)n1 [Compound 085] as well.
Ans. 28 ×10⁻⁶ cm/s

Qu. Please do the same for Cc1nsc(-c2nc(-c3ccnc(F)c3F)c3n2CCN(C(=O)c2ccc(F)cc2)[C@@H]3C)n1 [Compound 074] as well.
Ans. 22.9 ×10⁻⁶ cm/s

For each entry beneath this line, provide reported Papp A→B at 2.5 h, 2 μM.
1. Cc1nsc(-c2nnc3n2CCN(C(=O)c2ccc(F)cc2)[C@@H]3C)n1 [Fezolinetant, reference compound]
2. Cc1nsc(-c2nc(-c3ccnc(F)c3)c3n2CCN(C(=O)c2ccc(F)cc2)[C@@H]3C)n1 [Compound 044]
3. Cc1nsc(-c2nc(-c3cc(F)ncc3F)c3n2CCN(C(=O)c2ccc(F)cc2)[C@@H]3C)n1 [Compound 077]

Ans.
1: 26.2 ×10⁻⁶ cm/s; 2: 24 ×10⁻⁶ cm/s; 3: 18.3 ×10⁻⁶ cm/s
